TARGET_SYSTEM: hCMV UL128, UL130 and UL131A co-expressed in HEK293T cells (human cytomegalovirus, UniProt P16837 1-171; P16772 1-214)
Sequence (P16837 whole entry, chain 1 of 2): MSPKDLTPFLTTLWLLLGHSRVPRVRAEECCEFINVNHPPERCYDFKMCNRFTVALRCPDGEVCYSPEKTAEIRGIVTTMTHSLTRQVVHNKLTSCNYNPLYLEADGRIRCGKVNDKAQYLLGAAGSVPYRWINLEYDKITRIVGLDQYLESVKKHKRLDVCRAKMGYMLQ
Sequence (P16772 whole entry, chain 2 of 2): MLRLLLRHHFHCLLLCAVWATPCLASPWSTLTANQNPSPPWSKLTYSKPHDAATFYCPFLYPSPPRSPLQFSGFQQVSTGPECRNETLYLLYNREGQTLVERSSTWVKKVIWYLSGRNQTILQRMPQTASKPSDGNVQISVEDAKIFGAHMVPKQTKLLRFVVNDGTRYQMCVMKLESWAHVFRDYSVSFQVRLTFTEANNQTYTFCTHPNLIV
METHOD_DESCRIPTION: cell-based or functional assay
EXPERIMENTAL_READOUT: 50% Neutralization ARPE (hCMV VR1814)

Suppose we examine the binder 8J16 (antibody, V domains shown, human IgG mAb; also called 8J16-biotin) VH: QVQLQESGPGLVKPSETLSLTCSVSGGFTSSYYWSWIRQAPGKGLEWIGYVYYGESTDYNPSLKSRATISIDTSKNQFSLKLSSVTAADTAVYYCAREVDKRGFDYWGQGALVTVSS VL: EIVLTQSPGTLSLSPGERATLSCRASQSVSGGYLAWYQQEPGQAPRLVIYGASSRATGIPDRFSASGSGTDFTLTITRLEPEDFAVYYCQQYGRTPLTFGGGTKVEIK ; what 50% Neutralization ARPE (hCMV VR1814) value has been reported?
< 0.001 µg/mL

Then 8C15 (antibody, V domains shown, human IgG mAb; also called 8C15-biotin) VH: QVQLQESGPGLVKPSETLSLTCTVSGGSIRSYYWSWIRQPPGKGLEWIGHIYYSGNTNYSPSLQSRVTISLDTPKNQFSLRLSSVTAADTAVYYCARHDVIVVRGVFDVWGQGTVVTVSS VL: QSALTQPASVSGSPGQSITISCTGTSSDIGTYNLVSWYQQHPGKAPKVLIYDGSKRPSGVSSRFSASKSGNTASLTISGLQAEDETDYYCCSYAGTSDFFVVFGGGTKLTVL ?
< 0.001 µg/mL

Please give the result for 7B13 (antibody, V domains shown, human IgG mAb) VH: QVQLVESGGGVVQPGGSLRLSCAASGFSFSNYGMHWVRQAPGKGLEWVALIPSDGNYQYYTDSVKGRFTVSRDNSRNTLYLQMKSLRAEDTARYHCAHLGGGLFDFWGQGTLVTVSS VL: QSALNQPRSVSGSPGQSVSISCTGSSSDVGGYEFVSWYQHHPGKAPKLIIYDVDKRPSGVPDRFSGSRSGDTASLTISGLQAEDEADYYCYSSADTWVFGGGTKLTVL too.
< 0.001 µg/mL
